# Efficacy per record follows
# STUDY_SYSTEM: Cannabinoid receptor 2 (Homo sapiens, UniProt P34972)
# Sequence (P34972 whole entry): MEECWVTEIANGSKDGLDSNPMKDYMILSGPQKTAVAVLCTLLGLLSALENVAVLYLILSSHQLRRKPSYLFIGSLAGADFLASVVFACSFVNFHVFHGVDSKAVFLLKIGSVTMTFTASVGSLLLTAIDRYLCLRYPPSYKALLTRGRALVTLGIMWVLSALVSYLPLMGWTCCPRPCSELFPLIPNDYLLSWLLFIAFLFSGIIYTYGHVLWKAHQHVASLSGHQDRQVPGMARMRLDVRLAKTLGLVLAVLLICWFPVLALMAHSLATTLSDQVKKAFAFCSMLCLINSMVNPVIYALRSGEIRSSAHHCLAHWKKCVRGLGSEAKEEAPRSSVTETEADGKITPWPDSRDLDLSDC
# PROTOCOL_TEXT: Agonist activity at human CB2 receptor expressed in yeast cells relative to HU210
# Type: functional, cell-based
Respond numerically; units are % and should not be typed.

Reference set, count: 5
Clc1cccc(-c2ccc(N3CCCCCC3)nc2)c1Cl; 104
FC(F)(F)c1cc(N2CCCCCC2)ncc1-c1cccc(Cl)c1Cl; 79
O=C1CCC(=O)N1c1ccc(-c2cccc(Cl)c2Cl)cn1; 19
c1cc2occc2c(-c2ccc(N3CCCCCC3)nc2)n1; 80
Clc1ccc(-c2ccc(N3CCOCC3)nc2)cc1Cl; 11

API: the following record is the query input.
// query Look up Cannabinoid receptor 2 (Homo sapiens, UniProt P34972) data: Efficacy of CCCCNc1ccc(-c2cccc(Cl)c2Cl)cn1 , then report it.
// result 88

###

# STUDY_SYSTEM: Cannabinoid receptor 2 (Homo sapiens, UniProt P34972)
# PROTOCOL_TEXT: Agonist activity at human CB2 receptor expressed in yeast cells relative to HU210
# Type: functional, cell-based
Assign a class from recorded Efficacy; defined classes: group A: < 60%; group B: ≥ 60% and < 90%; group C: ≥ 90%

Sample answers from the record:
FC(F)(F)c1cc(-c2cccc(Cl)c2Cl)cnc1N1CCCCCC1; group A
Cc1c(Cl)cccc1-c1ccc(N2CCOCC2)nc1; group B
c1ccc(-c2ccc(N3CCCCCC3)nc2)nc1; group A
N#Cc1cccnc1-c1ccc(N2CCCCCC2)nc1; group B
Clc1cccc(-c2ccc(N3CCSCC3)nc2)c1Cl; group C
Cc1ccc(N)c(-c2ccc(N3CCCCCC3)nc2)n1; group B
Clc1ccccc1-c1ccc(N2CCOCC2)nc1; group A
Cc1cnc(-c2ccc(N3CCCCCC3)nc2)c(C)c1; group C

// query Which bin should I file O=C(c1cc(-c2cccc(Cl)c2Cl)cnc1N1CCCCCC1)N1CCOCC1 under?
// result group B

// query Which bin should I file CC1CC(C)CN(c2ccc(-c3cccc(Cl)c3Cl)cn2)C1 (centres undefined) under?
// result group B

// query Which bin should I file Fc1cccc(-c2ccc(N3CCOCC3)nc2)c1F under?
// result group A

// query Which bin should I file Clc1cccnc1-c1ccc(N2CCCCCC2)nc1 under?
// result group C

###

# STUDY_SYSTEM: UniProtKB P34972
# PROTOCOL_TEXT: Agonist activity at human CB2 receptor expressed in yeast cells
# EC50 per record follows

Cc1ccc(N)c(-c2ccc(N3CCCCCC3)nc2)n1; 126 nM
N#Cc1cc(N2CCCCCC2)ncc1-c1cccc(Cl)c1Cl; 100 nM

// query For the compound CC1CC(C)CN(c2ccc(-c3cccc(Cl)c3Cl)cn2)C1 (configuration not stated) , report EC50.
// result 501 nM

// query For the compound Clc1ccccc1-c1ccc(N2CCOCC2)nc1 , report EC50.
// result 398 nM

// query For the compound O=C(O)c1cc(-c2cccc(Cl)c2Cl)cnc1N1CCCCCC1 , report EC50.
// result 1580 nM

###

# STUDY_SYSTEM: Cannabinoid receptor 2 (Homo sapiens, UniProt P34972)
# PROTOCOL_TEXT: Agonist activity at human CB2 receptor expressed in yeast cells
TEST_READOUT: EC50 (nM)
Respond numerically; units are nM and should not be typed.

Reference set, count: 3
N#Cc1cccnc1-c1ccc(N2CCCCCC2)nc1; 398
FC(F)(F)c1cc(N2CCCCCC2)ncc1-c1cccc(Cl)c1Cl; 2510
c1ccc(-c2ccc(N3CCCCCC3)nc2)nc1; 10000

API: the following record is the query input.
// query For the compound C[C@@H]1CC[C@H](C)N1c1ccc(-c2cccc(Cl)c2Cl)cn1 , report EC50.
// result 251

###

# Tested on: Liver microsomes
# PROTOCOL_TEXT: Clearance in rat liver microsomes
# Format: ADME, Microsome
TEST_READOUT: CL (mL/min/g)
Respond numerically; units are mL/min/g and should not be typed.

Reference set, count: 2
Clc1cccc(-c2ccc(N3CCCCCC3)nc2)c1Cl; 30
Clc1cccc(-c2ccc(N3CCCOCC3)nc2)c1Cl; 27

API: the following record is the query input.
// query For the compound Clc1ccc(-c2ccc(N3CCCCCC3)nc2)nc1 , report CL.
// result 13

###

# STUDY_SYSTEM: UniProt P34972
# PROTOCOL_TEXT: Agonist activity at human CB2 receptor expressed in yeast cells
# EC50 per record follows
Respond numerically; units are nM and should not be typed.

Reference set, count: 2
N#Cc1cc(-c2cccc(Cl)c2Cl)cnc1N1CCCCCC1; 3980
Clc1cccc(-c2ccc(N3CCOCC3)nc2)c1Cl; 79.4

// query For the compound Clc1cccnc1-c1ccc(N2CCCCCC2)nc1 , report EC50.
// result 501

// query For the compound Nc1cccnc1-c1ccc(N2CCCCCC2)nc1 , report EC50.
// result 1000

// query For the compound Clc1ccc(-c2ccc(N3CCCCCC3)nc2)nc1 , report EC50.
// result 100

// query For the compound O=C1CCC(=O)N1c1ccc(-c2cccc(Cl)c2Cl)cn1 , report EC50.
// result 3980

###

# CL per record follows
# System: Liver microsomes
# PROTOCOL_TEXT: Clearance in rat liver microsomes
# Type: ADME, Microsome

Reference set, count: 2
c1cc2occc2c(-c2ccc(N3CCCCCC3)nc2)n1; > 50 mL/min/g
N#Cc1cc(N2CCCCCC2)ncc1-c1cccc(Cl)c1Cl; > 50 mL/min/g

API: the following record is the query input.
// query For the compound O=C(c1cc(-c2cccc(Cl)c2Cl)cnc1N1CCCCCC1)N1CCOCC1 , report CL.
// result > 50 mL/min/g
